Values from ChEMBL document CHEMBL5143728

# experimental_target: Toll-like receptor 1/2 (Mus musculus, UniProt Q9EPQ1+Q9QUN7)
# Sequence (Q9QUN7 whole entry): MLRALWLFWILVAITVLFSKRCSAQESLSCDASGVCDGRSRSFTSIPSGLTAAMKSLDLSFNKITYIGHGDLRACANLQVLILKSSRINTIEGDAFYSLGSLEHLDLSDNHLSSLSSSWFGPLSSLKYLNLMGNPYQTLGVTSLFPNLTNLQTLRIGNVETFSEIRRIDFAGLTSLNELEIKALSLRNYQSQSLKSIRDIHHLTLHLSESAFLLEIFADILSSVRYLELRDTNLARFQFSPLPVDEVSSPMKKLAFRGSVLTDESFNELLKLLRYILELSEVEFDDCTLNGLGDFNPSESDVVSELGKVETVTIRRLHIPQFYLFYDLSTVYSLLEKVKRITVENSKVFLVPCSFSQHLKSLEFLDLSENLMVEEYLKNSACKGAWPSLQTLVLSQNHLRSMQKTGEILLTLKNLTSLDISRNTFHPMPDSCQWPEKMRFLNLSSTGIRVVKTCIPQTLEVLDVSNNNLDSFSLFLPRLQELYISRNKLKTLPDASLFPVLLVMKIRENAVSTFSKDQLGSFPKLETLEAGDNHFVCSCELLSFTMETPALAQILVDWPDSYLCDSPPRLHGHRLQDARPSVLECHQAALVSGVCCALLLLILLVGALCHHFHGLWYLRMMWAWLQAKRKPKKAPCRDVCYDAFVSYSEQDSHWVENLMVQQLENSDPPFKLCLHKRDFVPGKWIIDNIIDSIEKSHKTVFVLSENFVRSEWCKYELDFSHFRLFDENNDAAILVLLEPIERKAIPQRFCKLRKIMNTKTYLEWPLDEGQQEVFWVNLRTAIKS
# Sequence (Q9EPQ1 whole entry): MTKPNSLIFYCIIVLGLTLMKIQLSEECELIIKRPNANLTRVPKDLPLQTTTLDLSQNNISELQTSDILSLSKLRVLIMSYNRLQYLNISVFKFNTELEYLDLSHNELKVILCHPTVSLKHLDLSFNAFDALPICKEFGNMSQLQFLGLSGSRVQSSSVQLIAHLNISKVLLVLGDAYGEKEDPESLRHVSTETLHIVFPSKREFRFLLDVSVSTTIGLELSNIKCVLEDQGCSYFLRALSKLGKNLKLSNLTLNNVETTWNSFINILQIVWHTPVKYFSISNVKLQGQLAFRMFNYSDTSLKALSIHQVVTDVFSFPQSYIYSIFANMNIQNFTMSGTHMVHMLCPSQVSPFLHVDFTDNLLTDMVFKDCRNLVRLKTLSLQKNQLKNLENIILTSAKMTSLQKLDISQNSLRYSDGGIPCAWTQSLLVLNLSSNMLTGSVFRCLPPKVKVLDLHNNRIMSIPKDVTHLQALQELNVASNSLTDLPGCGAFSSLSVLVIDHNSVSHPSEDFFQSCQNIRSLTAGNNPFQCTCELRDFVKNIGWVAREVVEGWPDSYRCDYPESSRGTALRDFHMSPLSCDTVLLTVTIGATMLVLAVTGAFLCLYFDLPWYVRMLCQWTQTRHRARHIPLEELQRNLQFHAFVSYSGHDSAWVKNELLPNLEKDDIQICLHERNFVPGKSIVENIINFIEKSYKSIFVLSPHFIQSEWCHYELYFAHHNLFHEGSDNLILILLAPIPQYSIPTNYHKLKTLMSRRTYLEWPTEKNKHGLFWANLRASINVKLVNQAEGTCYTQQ
# assay_info: Agonist activity at TLR1/TLR2 in wild type C57BL/6J mouse macrophages assessed as stimulation of TNF alpha release measured for 4 hrs by ELISA based assay
EC50 under 0.02 µM gets Satisfied, anything at or over 0.02 µM gets Not satisfied.

1. COC(=O)CCCCCCCNC(=O)[C@@H]1CN(C(=O)c2ccc(C(=O)N3C[C@@H](C(=O)N[C@H]4C[C@@H]4c4ccccc4)[C@H](C(=O)N[C@H]4C[C@@H]4c4ccccc4)C3)cc2)C[C@H]1C(=O)N[C@H]1C[C@@H]1c1ccccc1 ... Not satisfied
2. CCCCCCCCCCCCNC(=O)[C@@H]1CN(C(=O)c2ccc(C(=O)N3C[C@@H](C(=O)N[C@H]4C[C@@H]4c4ccccc4)[C@H](C(=O)N[C@H]4C[C@@H]4c4ccccc4)C3)cc2)C[C@H]1C(=O)N[C@H]1C[C@@H]1c1ccccc1 ... Satisfied
3. COC(=O)CCOCCOCCOCCNC(=O)[C@@H]1CN(C(=O)c2ccc(C(=O)N3C[C@@H](C(=O)N[C@H]4C[C@@H]4c4ccccc4)[C@H](C(=O)N[C@H]4C[C@@H]4c4ccccc4)C3)cc2)C[C@H]1C(=O)N[C@H]1C[C@@H]1c1ccccc1 ... Not satisfied
4. O=C(NCCCCCCCCCCO)[C@@H]1CN(C(=O)c2ccc(C(=O)N3C[C@@H](C(=O)N[C@H]4C[C@@H]4c4ccccc4)[C@H](C(=O)N[C@H]4C[C@@H]4c4ccccc4)C3)cc2)C[C@H]1C(=O)N[C@H]1C[C@@H]1c1ccccc1 ... Not satisfied
5. CC(C)(C)OC(=O)NCC(=O)OCCCCCCCCCCCCNC(=O)[C@@H]1CN(C(=O)c2ccc(C(=O)N3C[C@@H](C(=O)N[C@H]4C[C@@H]4c4ccccc4)[C@H](C(=O)N[C@H]4C[C@@H]4c4ccccc4)C3)cc2)C[C@H]1C(=O)N[C@H]1C[C@@H]1c1ccccc1 ... Satisfied
6. CCCCCCCCCCCCCCCCNC(=O)[C@@H]1CN(C(=O)c2ccc(C(=O)N3C[C@@H](C(=O)N[C@H]4C[C@@H]4c4ccccc4)[C@H](C(=O)N[C@H]4C[C@@H]4c4ccccc4)C3)cc2)C[C@H]1C(=O)N[C@H]1C[C@@H]1c1ccccc1 ... Satisfied
7. CCCCNC(=O)[C@@H]1CN(C(=O)c2ccc(C(=O)N3C[C@@H](C(=O)N[C@H]4C[C@@H]4c4ccccc4)[C@H](C(=O)N[C@H]4C[C@@H]4c4ccccc4)C3)cc2)C[C@H]1C(=O)N[C@H]1C[C@@H]1c1ccccc1 ... Not satisfied
8. CCNC(=O)[C@@H]1CN(C(=O)c2ccc(C(=O)N3C[C@@H](C(=O)N[C@H]4C[C@@H]4c4ccccc4)[C@H](C(=O)N[C@H]4C[C@@H]4c4ccccc4)C3)cc2)C[C@H]1C(=O)N[C@H]1C[C@@H]1c1ccccc1 ... Not satisfied
9. COC(=O)CCCCCCCCCNC(=O)[C@@H]1CN(C(=O)c2ccc(C(=O)N3C[C@@H](C(=O)N[C@H]4C[C@@H]4c4ccccc4)[C@H](C(=O)N[C@H]4C[C@@H]4c4ccccc4)C3)cc2)C[C@H]1C(=O)N[C@H]1C[C@@H]1c1ccccc1 ... Satisfied
